Data provenance: paper PMC6696115

assay_name: DPPH radical scavenging assay
Type: biochemical
condition_parameters: 30 min, room temperature, dark, absorbance 515 nm
Collected IC50 values appear next to each entry.
result_type: IC50 (µM)

[[record]]
compound = "Cc1c(/N=C/c2ccco2)c(=O)n(-c2ccccc2)n1C"
measurement_qualifier = ">"
numeric_readout = 200

[[record]]
compound = "COc1cc(C=Nc2c(C)n(C)n(-c3ccccc3)c2=O)cc(OC)c1O"
measurement_qualifier = "="
numeric_readout = 15.7

[[record]]
compound = "Cc1c(N=Cc2cccc([N+](=O)[O-])c2)c(=O)n(-c2ccccc2)n1C"
measurement_qualifier = ">"
numeric_readout = 200

[[record]]
compound = "Cc1c(N=Cc2ccccc2)c(=O)n(-c2ccccc2)n1C"
measurement_qualifier = ">"
numeric_readout = 200

[[record]]
compound = "COc1ccc(C=Nc2c(C)n(C)n(-c3ccccc3)c2=O)cc1O"
measurement_qualifier = ">"
numeric_readout = 200

[[record]]
compound = "O=C1O[C@H]([C@@H](O)CO)C(O)=C1O [ascorbic acid, reference compound]"
measurement_qualifier = "="
numeric_readout = 14.5

[[record]]
compound = "Cc1c(N=Cc2ccc(O)c(O)c2)c(=O)n(-c2ccccc2)n1C"
measurement_qualifier = "="
numeric_readout = 18.9

[[record]]
compound = "Cc1c(N=CC=Cc2ccccc2)c(=O)n(-c2ccccc2)n1C"
measurement_qualifier = ">"
numeric_readout = 200

[[record]]
compound = "COc1ccc(C=Nc2c(C)n(C)n(-c3ccccc3)c2=O)cc1"
measurement_qualifier = ">"
numeric_readout = 200

[[record]]
compound = "O=c1c(O)c(-c2ccc(O)c(O)c2)oc2cc(O)cc(O)c12 [quercetin, reference compound]"
measurement_qualifier = "="
numeric_readout = 7.3

[[record]]
compound = "Cc1c(N=Cc2cc([N+](=O)[O-])ccc2O)c(=O)n(-c2ccccc2)n1C"
measurement_qualifier = ">"
numeric_readout = 200

[[record]]
compound = "O=C(O)/C=C/c1ccc(O)c(O)c1 [caffeic acid, reference compound]"
measurement_qualifier = "="
numeric_readout = 16.2


* * *

result_type: melting point

[[record]]
smiles_code = "COc1cc(C=Nc2c(C)n(C)n(-c3ccccc3)c2=O)cc(OC)c1O"
result = "259.2 to 260.7 °C"

[[record]]
smiles_code = "COc1ccc(C=Nc2c(C)n(C)n(-c3ccccc3)c2=O)cc1O"
result = "246.8 to 247.2 °C"

[[record]]
smiles_code = "Cc1c(N=CC=Cc2ccccc2)c(=O)n(-c2ccccc2)n1C"
result = "165.5 to 165.9 °C"

[[record]]
smiles_code = "Cc1c(N=Cc2ccccc2)c(=O)n(-c2ccccc2)n1C"
result = "176.8 to 177.2 °C"

[[record]]
smiles_code = "Cc1c(N=Cc2cc([N+](=O)[O-])ccc2O)c(=O)n(-c2ccccc2)n1C"
result = "204.9 to 205.6 °C"


* * *

Tested on: RAW 264.7 cells
assay_name: cell viability, MTT dye assay
Type: cell-based, murine
condition_parameters: RAW 264.7, exposure to 400 µM, 48 h
Rule: % Live Cells below 20% gives yes (1). Equal to or above 20% gives no (0).

[[record]]
molecule = "Cc1c(/N=C/c2ccco2)c(=O)n(-c2ccccc2)n1C [Compound 4]"
group_label = "no (0)"

[[record]]
molecule = "Cc1c(N=Cc2ccccc2O)c(=O)n(-c2ccccc2)n1C [Compound 3b]"
group_label = "yes (1)"

[[record]]
molecule = "Cc1c(N=Cc2ccccc2)c(=O)n(-c2ccccc2)n1C [Compound 3a]"
group_label = "no (0)"

[[record]]
molecule = "Cc1c(N=Cc2ccc(O)c(O)c2)c(=O)n(-c2ccccc2)n1C [Compound 3i]"
group_label = "no (0)"

[[record]]
molecule = "COc1ccc(C=Nc2c(C)n(C)n(-c3ccccc3)c2=O)cc1 [Compound 3c]"
group_label = "no (0)"

